# System: HCC 2998
# PROCEDURE SUMMARY: NCI tumour cell line growth inhibition, 48 h
Activity calls are given as the source filed them. No stated cut-off is given here; in the data, active = GI50 up to about 1.1 µM and inactive = higher.
Catalogue of GI50 values
QUANTITY: GI50

[
  {
    "COMPOUND": "COC(=O)C(C(=O)C(=O)Nc1c(Cl)cc([N+](=O)[O-])cc1Cl)c1csc(-n2nc(C3=CCCCC3)cc2-c2ccccc2)n1 (stereo not drawn)",
    "RESULT": "> 100 µM (inactive)"
  },
  {
    "COMPOUND": "O=c1sc2c(s1)SSSSS2",
    "RESULT": "> 50 µM (inactive)"
  },
  {
    "COMPOUND": "OCC1CCCCN1Cc1nc2cc(Cl)ccc2[nH]1 (stereo not drawn)",
    "RESULT": "> 100 µM (inactive)"
  }
]
